Reference source for all entries: patent US20260297042A1

Measured pIC50 accompanies every entry in the list below.
SUBJECT_OF_TEST: Human PKMYT1 (Homo sapiens)
Construct: Human PKMYT1 75-362 was cloned as a TEV cleavable 6xHis fusion; 6xHis (TEV cleavable) (cleaved yes); made in house; host or cells: bacterial cells
Sequence (Q99640 75-362): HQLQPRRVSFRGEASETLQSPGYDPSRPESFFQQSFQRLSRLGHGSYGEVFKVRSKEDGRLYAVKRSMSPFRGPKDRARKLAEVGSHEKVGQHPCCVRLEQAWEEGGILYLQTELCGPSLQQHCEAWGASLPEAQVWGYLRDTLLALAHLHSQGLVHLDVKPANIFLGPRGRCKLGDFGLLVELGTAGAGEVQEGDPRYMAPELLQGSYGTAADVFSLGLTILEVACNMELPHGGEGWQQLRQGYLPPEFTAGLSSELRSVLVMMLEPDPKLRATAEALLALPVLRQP
MEASUREMENT_NOTES: PKMYT1 biochemical ADP-Glo enzymatic assay
COND: PKMYT1 kinase domain 15 nM; ADP-Glo; banded values
pIC50: −log10 of the molar value. Where a name gives a salt, the structure may show the parent alone.

Some solved cases for reference:
COMPOUND: Cc1ccc(O)c(C)c1NC(=O)c1cnc(Nc2cccc(CC(=O)N(C)C3CC3)n2)s1 [BAA-428]
ASSAY_RESULT: > 7.30

COMPOUND: Cc1cncc(Nc2ncc(C(=O)Nc3c(C)ccc(O)c3C)s2)n1 [BAA-570]
ASSAY_RESULT: > 7.30

COMPOUND: Cc1ccc(O)c(C)c1NC(=O)c1cnc(Nc2ncnc3[nH]ccc23)s1 [BAA-441]
ASSAY_RESULT: > 7.30

COMPOUND: CCn1cc(C#N)c(Nc2ncc(C(=O)Nc3c(C)ccc(O)c3C)s2)n1 [BAA-573]
ASSAY_RESULT: > 7.30

COMPOUND: Cc1ccc(O)c(C)c1NC(=O)c1cnc(Nc2cnn(CC(=O)N3CCCC3)c2C)s1 [BAA-556]
ASSAY_RESULT: 6.00 to 7.30

Data point: Cc1cn(C(CO)C(=O)N(C)C2CC2)nc1Nc1ncc(C(=O)Nc2c(C)ccc(O)c2C)s1 (centres unmarked) [BAA-591] ; pIC50 = > 7.30

Data point: CCN(C(=O)Cn1cc(C)c(Nc2ncc(C(=O)Nc3c(C)ccc(O)c3C)s2)n1)C1CC1 [BAA-551] ; pIC50 = > 7.30

Data point: Cc1ccc(O)c(C)c1NC(=O)c1cnc(Nc2cccc(N(C)C)n2)s1 [BAA-417] ; pIC50 = > 7.30

Data point: CCc1cn(CC#N)nc1Nc1ncc(C(=O)Nc2c(C)ccc(O)c2C)s1 [BAA-590, TFA salt] ; pIC50 = > 7.30

Data point: Cc1cn(CC(=O)N2CCCC2C(F)(F)F)nc1Nc1ncc(C(=O)Nc2c(C)ccc(O)c2C)s1 (centres unmarked) [BAA-493] ; pIC50 = > 7.30

Data point: Cc1ccc(O)c(C)c1NC(=O)c1cnc(Nc2n[nH]c3ccccc23)s1 [BAA-455] ; pIC50 = 6.00 to 7.30

Data point: Cc1ccc(O)c(C)c1NC(=O)c1cnc(Nc2cc(N3CCOCC3)ncn2)s1 [BAA-571] ; pIC50 = > 7.30

====

SUBJECT_OF_TEST: Human PKMYT1 (Homo sapiens)
Construct: Human PKMYT1 75-362 was cloned as a TEV cleavable 6xHis fusion; 6xHis (TEV cleavable) (cleaved yes); made in house; host or cells: bacterial cells
MEASUREMENT_NOTES: PKMYT1 biochemical ADP-Glo enzymatic assay
COND: PKMYT1 kinase domain 15 nM; ADP-Glo; banded values
pIC50: −log10 of the molar value.
Measured pIC50 accompanies every entry in the list below.

Some solved cases for reference:
COMPOUND: Cc1cc(F)cnc1Nc1ncc(C(=O)Nc2c(C)ccc(O)c2C)s1
SUBJECT_OF_TEST: Human PKMYT1 (Homo sapiens)
pIC50: > 7.30
--
COMPOUND: Cc1ccc(O)c(C)c1NC(=O)c1cnc(Nc2nn(C)c3ccc(F)cc23)s1
SUBJECT_OF_TEST: Human PKMYT1 (Homo sapiens)
pIC50: 6.00 to 7.30
--
COMPOUND: Cc1ccnc(Nc2ncc(C(=O)Nc3c(C)ccc(O)c3C)s2)c1F
SUBJECT_OF_TEST: Human PKMYT1 (Homo sapiens)
pIC50: > 7.30

Data point: COc1ccnc(Nc2ncc(C(=O)Nc3c(C)ccc(O)c3C)s2)c1 ; pIC50 = > 7.30

Data point: Cc1ccc(O)c(C)c1NC(=O)c1cnc(Nc2ncnn3cccc23)s1 ; pIC50 = > 7.30
